Values were extracted from PubChem BioAssay (NCI).

Tested on: PC-3 prostate
Assay explanation: NCI-60 one-dose screen, 48 h (100 = growth as untreated, 0 = no growth, -100 = all killed)
Protocol conditions: 10 µM
This is part of a sample that, as a whole, favours compounds with a hit. Of some 83,000 tested, about 20% had one in any assay.
Quantity measured: growth (%)

Compound	Quantity measured	Val
CNS(=O)(=O)Oc1ccc(-c2sc3cc(OS(=O)(=O)NC)ccc3c2C(=O)c2ccc(OCCN3CCCCC3)cc2)cc1	growth	42.4
CCC1NC(=O)c2cc(S(N)(=O)=O)c(Cl)cc2N1 (stereo not given)	growth	93.6
O=C(Nc1ccc(F)cc1)c1cc2ccccc2cc1O	growth	42.9
COc1ccc(C(=O)CC(CC(=O)c2ccc(OC)cc2)c2c(C)nn(-c3ccccc3)c2Cl)cc1	growth	85.6
CN(C)CCOc1cccc(-c2nc3sccn3c2-c2ccnc(S(C)(=O)=O)n2)c1	growth	80.8

###

System: HCT-116 colon
Assay explanation: NCI-60 one-dose screen, 48 h (100 = growth as untreated, 0 = no growth, -100 = all killed)
Protocol conditions: 10 µM
Compounds without any hit were thinned out: in the full panel of roughly 83,000, 20% have a hit.
Just a reminder that ties go to -1: only growth strictly below 10% counts as 1.

Compound	Target under test	Assigned category
c1ccc(/C(=N\Nc2ccc3ccccc3n2)c2ccccn2)cc1	HCT-116 colon	1
NC(N)=N/N=C(\N=Nc1ccccc1)c1ccc(Cl)cc1	HCT-116 colon	-1
COc1ccc2c(c1)C(=O)/C(=C/c1cccc(OCC(=O)c3ccc([N+](=O)[O-])cc3)c1)CO2	HCT-116 colon	1
COc1cc2nc(SCC(=O)Nc3cc(OC)c(OC)c(OC)c3)n(Cc3ccccc3)c(=O)c2cc1OC	HCT-116 colon	-1
O=C(CCCSc1nc(-c2ccccc2)cc(-c2ccc(Cl)cc2)n1)NO	HCT-116 colon	-1
CCn1c(SCCc2ccccc2)nnc1-c1nn(-c2ccc(Cl)cc2Cl)c(-c2ccc(Cl)cc2)c1C	HCT-116 colon	-1
CCOC(=O)c1cc(C(=O)c2cc(OC)c(OC)c(OC)c2)n2nc(C)ccc12	HCT-116 colon	-1
COc1cc(/C=C/c2cc(/C=C/c3ccc(O)c(OC)c3)n(C(=O)Nc3ccc(C)cc3)n2)ccc1O	HCT-116 colon	1
CCOc1ccccc1/C=N/N1CCCCCC1	HCT-116 colon	-1
NC(CSC(c1ccccc1)(c1ccccc1)c1cccc2ccccc12)C(=O)O (configuration not stated)	HCT-116 colon	-1
OC[C@H]1OC([S-])[C@H](O)[C@@H](O)[C@@H]1O.[Au+] (some centres not stated)	HCT-116 colon	-1
NC1=CC(=O)C(=O)c2cccnc21	HCT-116 colon	-1
COc1ccc(-c2nn(-c3cccc(Cl)c3)cc2-c2cc(-c3ccccc3)nc(N)n2)cc1	HCT-116 colon	1
CC(=O)OC/C=C(/C)C[P+](c1ccccc1)(c1ccccc1)c1ccccc1	HCT-116 colon	-1
C/C(=C/CCC(C)[C@@H]1CC[C@]2(C)C3=C(CC[C@@]12C)[C@@]1(C)CCC(=O)C(C)(C)[C@@H]1CC3)C(=O)O (some centres not stated)	HCT-116 colon	1
O=C(CCCCCCC(=O)Nc1ccccc1)NO	HCT-116 colon	1
O=c1cn[nH]c2ccc(Br)cc12	HCT-116 colon	-1
O=C1c2ccccc2C(=O)c2c1ccc(C(Br)Br)c2Cl	HCT-116 colon	1
COc1ccccc1-n1c(-c2csc(NC(C)=O)n2)n[nH]c1=S	HCT-116 colon	-1
Cn1c2ccccc2c2c3[nH][nH]c(=O)c3c3c4ccccc4[nH]c3c21	HCT-116 colon	1
COc1ccc2c(c1)CC=C1[C@@H]2CC[C@]2(C)C(=O)/C(=N/O)C[C@@H]12	HCT-116 colon	-1
COc1cc2cc(Oc3ccc(NC(=O)c4ccc(Cl)c(C(F)(F)F)c4)cc3)c(C)nc2cc1OC	HCT-116 colon	1
COc1cc2c(Nc3ccc(S(N)(=O)=O)cc3)ncnc2c(OC)c1OC	HCT-116 colon	-1
O=c1[nH]c(=O)n(C2C[C@H](O)[C@@H](CO)O2)cc1C(F)(F)F (some centres not stated)	HCT-116 colon	-1
COc1ccc2c(c1)OC(N)=C(C#N)C2c1cc(OC)c(OC)c(OC)c1 (configuration not stated)	HCT-116 colon	1
Cc1ccc(N=Nc2ccccc2)cc1	HCT-116 colon	-1
CN1CCN(CC(=O)Nc2cccc(-n3cc(-c4ccncc4)c(-c4ccc(Cl)c(O)c4)n3)c2)CC1	HCT-116 colon	-1
COc1ccc2c(c1)C(=O)/C(=C/c1ccc([N+](=O)[O-])o1)O2	HCT-116 colon	1
CCCCCC(=O)O[C@]1(C(C)=O)CCC2C3CCC4=CC(=O)CC[C@]4(C)C3CC[C@@]21C (some centres not stated)	HCT-116 colon	-1
C[C@]12CC[C@@H]3c4ccc(O)cc4CC[C@H]3[C@@H]1CC[C@@H]2NS(=O)(=O)c1ccc(C(F)(F)F)cc1	HCT-116 colon	-1
Clc1ccc(Cc2ccncc2)cc1	HCT-116 colon	-1
COc1cccc(-c2nc3sccn3c2-c2cccc(S(C)(=O)=O)c2)c1	HCT-116 colon	-1
CC(C)(C)OC(=O)CN1CCc2c(sc3ncnc(N/N=C/c4ccccc4Br)c23)C1	HCT-116 colon	-1
CC(=O)Nc1cc2c(cc1Cl)Cc1cc(Cl)ccc1-2	HCT-116 colon	-1
CC(CN(C)C)Oc1ccc(OC(C)CN(C)C)c2c1C(=O)c1ccccc1C2=O (configuration not stated)	HCT-116 colon	-1
N#CC1=CC2CN(Cc3ccccc3)C1C1C(=O)N(c3ccccc3)C(=O)C21 (configuration not stated)	HCT-116 colon	-1
OCCn1cccn1	HCT-116 colon	-1
Cc1cc(=O)n2nnc3cc(C(F)(F)F)ccc3n12	HCT-116 colon	-1
CCOC(=O)C1=CSC2=NC3=C(CCC/C3=C\c3cc(OC)c(OC)c(OC)c3)C(c3cc(OC)c(OC)c(OC)c3)N12 (configuration not stated)	HCT-116 colon	-1
Cc1ccc(C)c(COc2cc(NC(=O)c3ccc4c(c3)OCO4)ccc2N(C)S(C)(=O)=O)c1	HCT-116 colon	1
O=C(CCCSc1nc(-c2ccc(Cl)cc2)cc(-c2ccc(Cl)cc2)n1)NO	HCT-116 colon	-1
COc1cc(/C=C2\CCCC3C2=Nc2ccccc2NC3c2cc(OC)c(OC)c(OC)c2)cc(OC)c1OC (configuration not stated)	HCT-116 colon	1

###

Test system: NCI-H460 lung
Assay explanation: NCI-60 one-dose screen, 48 h (100 = growth as untreated, 0 = no growth, -100 = all killed)
Protocol conditions: 10 µM
Method: Growth inhibition of the NCI-H460 human Non-Small Cell Lung tumor cell line is measured as a screen for anti-cancer activity. Cells are grown in 96 well plates and exposed to the test compound for 48 hours. Compounds are tested at a single concentration, which is 10^-5 M for most compounds. The reported endpoint is percent growth (GI% or GIPRCNT), where numbers from 0 - 100% represent growth inhibition, and numbers from -100% - 0 represent cell death. […]
About 83,000 compounds went through this panel and 20% of them were active in at least one assay; those are over-represented in the sample as a whole.
Classify as follows. Reported growth greater than or equal to 70%: Criterion met. Reported growth below: Criterion not met.

Compound	Assigned category
C[C@]12CCC3c4ccc(O)cc4C[C@@H](CCCCCCCCCS(=O)CCCC(F)(F)C(F)(F)F)C3C1CC[C@@H]2O (stereo not given in full)	Criterion not met
COc1ccc(CCN2CCC(Nc3nc4ccccc4n3Cc3ccc(F)cc3)CC2)cc1	Criterion not met
O=C1CC(SC(=S)C2CCCC2=O)C(=O)N1 (stereo not given)	Criterion met
COc1cc2cc(Oc3ccc(NC(=O)Nc4ccc(C(F)(F)F)cc4)cc3)c(C)nc2cc1OC	Criterion not met
CCC(=O)OC1CCC2C3CCC(=O)OC3C(C)(CCC(=O)O)CC12C (stereo not given)	Criterion not met
COc1cc2c3c(n([C@H]4CCOC4)c(=O)c2cc1OC)-c1cc2c(cc1C3=O)OCO2	Criterion not met
COc1ccc(C2CC(c3cc(OC)c(OC)c(OC)c3)=NN2)cc1 (stereo not given)	Criterion not met
CSc1nc2c(c(=O)n1C)CN(Cc1ccccc1)C(=O)CN2	Criterion met
CN1CCN(CCC(=O)Nc2cccc(-n3cc(-c4ccncc4)c(-c4ccc(Cl)c(O)c4)n3)c2)CC1	Criterion not met
CC(=O)C1CCC2C3CC=C4CC(SC(=N)N)CCC4(C)C3CCC12C (stereo not given)	Criterion not met
CS(=O)(=O)c1nccc(-c2c(-c3cccc(OCCc4ccccc4)c3)nc3sccn23)n1	Criterion met
O=C(Nc1cc(Cl)cc2c1-c1ccc(Cl)cc1C2O)C(Cl)Cl (stereo not given)	Criterion not met
CC1(C)N=C(N)N=C(N)N1c1cccc(C#N)c1	Criterion not met
OCC1OC(n2ccc3c(NO)ncnc32)C(O)C1O (stereo not given)	Criterion not met
CCCCN(CCCC)C(=O)[C@H](CC)[C@@H]1CC[C@@H](C)[C@@H]([C@H](C)[C@@H](O)[C@@H](C)C(=O)[C@H](CC)C2O[C@]3(C=CC(=O)[C@]4(CC[C@@](C)([C@H]5CC[C@](O)(CC)[C@H](C)O5)O4)O3)[C@H](C)C[C@@H]2C)O1 (stereo not given in full)	Criterion not met
S=C(SSC(=S)N(c1ccccc1)c1ccccc1)N(c1ccccc1)c1ccccc1	Criterion met
CCCN1CN2C(=O)N3CN(CCC)CN4C(=S)N(C1)C2C34 (stereo not given)	Criterion met
CCCCCCCCCCCCCCCCCC[n+]1ccc2c(C)c3c(c(C)c2c1)c1cc(O)ccc1n3CC	Criterion not met
O=[N+]([O-])c1ccc(/C(=C/c2ccccc2)[n+]2ccccc2)cc1	Criterion met
O=C(CNc1nnc(-c2cccnc2SCc2ccccc2)s1)Nc1nc(Cl)cc(Cl)n1	Criterion met
CCCCc1oc2ccccc2c1C(=O)c1cc(I)c(OCCN(CC)CC)c(I)c1	Criterion not met
CC(=O)COc1ccc(Cl)cc1Cl	Criterion met
CC(C)C[C@H](NC(=O)Cn1cccc(CNC(=O)c2ccccc2)c1=O)B(O)O	Criterion not met
COc1ccc2nc(Cl)c(Cn3nnc(Cc4ccccc4)n3)cc2c1	Criterion not met
CCc1ccc(-c2ccc(-n3nc(C)c4c(N)nc(Cc5ccccc5)nc43)cc2)cc1	Criterion not met
O=C(CCc1nnc2sc(-c3cc(O)c(O)c(O)c3)nn12)c1nc2ccccc2[nH]1	Criterion met
O=C(N/N=C/c1ccc(Cl)cc1)c1ccc(Cc2n[nH]c(=O)c3cccnc23)cc1	Criterion met
COc1ccc2c(c1)C(=O)/C(=C/c1ccc([N+](=O)[O-])o1)O2	Criterion not met
O=C1/C=C/[C@@H](O)[C@@H]2C[C@@H](O)C[C@H]2/C=C/CCC[C@@H](C(F)(F)F)O1	Criterion met
Clc1nc2ccc(Br)cc2cc1-c1nc2ccccc2[nH]1	Criterion met
COc1cc(C)ccc1Oc1nc(Nc2ccc(N3CCOCC3)cc2)ncc1NC(=O)Nc1cc(C(F)(F)F)cc(C(F)(F)F)c1	Criterion not met
COc1ccc(-c2cc(-c3ccc(Cl)cc3)nc(SCCCC(=O)NO)n2)cc1OC	Criterion not met
CC1/C=C/C=C/C=C/C=C/C=C/C=C/C=C/C(O[C@@H]2O[C@H](C)[C@H](O)[C@@H](O)[C@@H]2N)CC(O)C(C(=O)O)C(O)CC(=O)CC(O)CC(O)CC(O)CC(=O)CCCC(=O)CC(=O)OC1C(C)CC(C)C(O)CC(=O)c1ccc(N)cc1 (stereo not given in full)	Criterion not met
